molecular target: NHE1 (Homo sapiens, UniProt P19634); assay: NHE1 inhibition: sodium-dependent pHi recovery in BCECF-loaded U87 glial cells after ammonium chloride pre-pulse; format: cell-based; parameters: Sodium-dependent proton extrusion in U87 glial cells and in primary astrocytes is mediated by the type 1 sodium proton exchanger (NHE1); endogenous in cells; host or cells: U87 human glioma cells; conditions: U87 glial cells; read-out: IC50 of cariporide (NHE inhibition)
Sequence (P19634 whole entry): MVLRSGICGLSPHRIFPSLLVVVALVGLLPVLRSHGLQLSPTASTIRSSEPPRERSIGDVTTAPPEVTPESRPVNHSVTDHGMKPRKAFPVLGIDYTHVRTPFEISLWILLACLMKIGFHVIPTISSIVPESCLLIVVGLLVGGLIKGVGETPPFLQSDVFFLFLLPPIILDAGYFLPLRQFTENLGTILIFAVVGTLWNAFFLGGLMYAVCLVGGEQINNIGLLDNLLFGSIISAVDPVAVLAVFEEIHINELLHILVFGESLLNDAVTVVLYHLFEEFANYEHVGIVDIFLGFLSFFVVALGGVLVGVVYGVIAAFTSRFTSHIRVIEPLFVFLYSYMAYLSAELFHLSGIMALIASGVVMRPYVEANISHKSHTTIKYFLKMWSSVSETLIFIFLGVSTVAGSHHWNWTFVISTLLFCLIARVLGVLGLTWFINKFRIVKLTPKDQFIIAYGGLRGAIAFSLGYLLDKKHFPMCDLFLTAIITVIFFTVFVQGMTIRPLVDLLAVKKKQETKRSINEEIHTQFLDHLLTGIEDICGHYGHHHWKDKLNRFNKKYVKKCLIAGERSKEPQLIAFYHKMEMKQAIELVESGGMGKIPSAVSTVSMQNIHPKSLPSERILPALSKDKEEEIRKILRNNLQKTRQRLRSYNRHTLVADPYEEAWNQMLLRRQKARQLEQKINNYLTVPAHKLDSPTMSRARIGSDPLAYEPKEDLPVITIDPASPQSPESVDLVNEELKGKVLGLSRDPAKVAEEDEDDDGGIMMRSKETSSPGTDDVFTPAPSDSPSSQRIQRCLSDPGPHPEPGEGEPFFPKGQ
assay.metric: IC50 (nM)
The figure you give is taken to be in nM; do not add the unit.

Can you share its IC50? I mean this compound: CC(C)c1ccc(C(=O)NC(=N)N)cc1S(C)(=O)=O [Cariporide]
74
